Measured IC50 accompanies every entry in the list below.
# MEASUREMENT TARGET: human C1s protein (Homo sapiens, UniProt P09871)
# Construct: purchased R&D Systems or Complement Technologies 2060-SE or A104
# Sequence (P09871 16-688): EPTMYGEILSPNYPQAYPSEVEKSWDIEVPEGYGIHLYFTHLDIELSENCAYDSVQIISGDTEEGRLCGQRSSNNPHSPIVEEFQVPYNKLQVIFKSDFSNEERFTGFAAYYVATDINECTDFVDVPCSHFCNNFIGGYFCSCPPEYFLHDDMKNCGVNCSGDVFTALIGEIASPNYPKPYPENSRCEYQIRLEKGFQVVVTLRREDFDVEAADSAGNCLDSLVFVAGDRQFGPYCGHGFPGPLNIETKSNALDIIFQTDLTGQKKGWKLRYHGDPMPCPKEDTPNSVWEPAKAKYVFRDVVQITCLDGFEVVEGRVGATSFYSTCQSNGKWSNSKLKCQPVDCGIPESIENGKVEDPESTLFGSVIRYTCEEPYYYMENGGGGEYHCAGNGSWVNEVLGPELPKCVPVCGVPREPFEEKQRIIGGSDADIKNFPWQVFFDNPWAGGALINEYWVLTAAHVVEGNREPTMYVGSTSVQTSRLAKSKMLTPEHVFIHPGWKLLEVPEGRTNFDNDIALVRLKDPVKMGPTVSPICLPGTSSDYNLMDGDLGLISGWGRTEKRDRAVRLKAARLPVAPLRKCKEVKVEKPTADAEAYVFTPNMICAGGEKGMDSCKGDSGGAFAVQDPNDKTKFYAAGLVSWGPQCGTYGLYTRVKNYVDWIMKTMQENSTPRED
# ASSAY NOTES: recombinant C1s enzymatic assay (YLGR-Rh110-dPro substrate hydrolysis, fluorescence)
# Assay type: biochemical
# CONDITION NOTES: recombinant human C1s 2.5 nM, substrate YLGR-Rh110-dPro 20 μM, 15 min pre-incubation, 60 min RT; read-out: rec. hC11s pIC50 (converted)
Structures can show the parent of a compound that is named as a salt.
Number only, in nM; omit the unit.

Reference set (5 entries):
>  <COMPOUND>
COc1cc(-c2cc[nH]n2)c(-c2ccc3c(N)cnnc3c2)cc1B(O)O [Example 36, formic acid salt]

>  <MEASUREMENT TARGET>
human C1s protein (Homo sapiens, UniProt P09871)

>  <UNIT STRING>
nM

>  <IC50>
1.29

$$$$
>  <COMPOUND>
Nc1cnnc2cc(-c3cc(B(O)O)ccc3-n3cccn3)ccc12

>  <MEASUREMENT TARGET>
human C1s protein (Homo sapiens, UniProt P09871)

>  <UNIT STRING>
nM

>  <IC50>
3.24

$$$$
>  <COMPOUND>
CC(=O)Nc1cnn(-c2ccc(B(O)O)cc2-c2ccc3c(N)cnnc3c2)c1 [Example 10, formic acid salt]

>  <MEASUREMENT TARGET>
human C1s protein (Homo sapiens, UniProt P09871)

>  <UNIT STRING>
nM

>  <IC50>
1.78

$$$$
>  <COMPOUND>
Nc1cnnc2cc(-c3cc(B(O)O)ccc3-c3cc[nH]n3)ccc12

>  <MEASUREMENT TARGET>
human C1s protein (Homo sapiens, UniProt P09871)

>  <UNIT STRING>
nM

>  <IC50>
2.63

$$$$
>  <COMPOUND>
COc1cc(-c2ncc(C)o2)c(-c2ccc3c(N)cnnc3c2)cc1B(O)O [Example 88, formic acid salt]

>  <MEASUREMENT TARGET>
human C1s protein (Homo sapiens, UniProt P09871)

>  <UNIT STRING>
nM

>  <IC50>
0.724

$$$$

Bench note: what IC50 did COc1cc(-c2ncc(F)s2)c(-c2ccc3c(N)cnnc3c2)cc1B(O)O show?
0.977

Same question, CC1COc2cc(-n3cccn3)c(-c3ccc4c(N)cnnc4c3)cc2B(O)O1 (single isomer, unassigned; enantiomer 2) [Example 73] this time
1.51

Same question, Nc1cnnc2cc(-c3cc(B(O)O)ccc3-n3cc(C(F)F)cn3)ccc12 this time
1.74

Same question, Cc1cc(-c2nccs2)c(-c2ccc3c(N)cnnc3c2)cc1B(O)O [Example 53, formic acid salt] this time
9.55

Same question, CCOc1cc(-n2cccn2)c(-c2ccc3c(N)cnnc3c2)cc1B(O)O this time
1.23
